# Target entity: GII.17 (norovirus GII.17)
# Measurement protocol: ELISA
Measured attribute: EC50 (nM)
Numbers only, in nM.

Binder	Data value
279A (antibody, V domains shown) VH: QVQLVESGGGVVQPGRSLRLSCAASGFTFTKYGMHWVRQAPGKGLEWVAFIAYDGSVKYYGDSAKGRFAISRDNPKNTVYLQMNSLRAEDTAVYYCAKVEIHYYSNSLLGMDVWGQGTLVTVSS VL: QSVLTQPPSASGTPGQRVTISCSGGNSNIGISYVYWYQHLPGTAPKLLISKNNLRPSGVPDRFSASKSGTSASLAISGLRSEDEAEYYCATLDINMTWVFGGGTKLTVL	18

Next:
Q. Would you kindly share the measured EC50 for 178.6 (antibody, V domains shown) VH: QVQLVESGGGVVQPGRSLRLSCAASGFTFSTYGMNWVRQAPGRGLEWVADISYDGSNSRYADSVKGRFTISRDNSKNTLSLQMNGLRTEDTAVYYCAKDWYLAMAGAAFDSWGPGTLVTVSS VL: SSELTQDPVVSVALGQTVRITCQGDSLTTFYASWFQQKPGQAPALVLYGNDNRPSGIPDRFSGSRSGNTASLTITGAQAEDEADYYCNSRDSSGKPSFGGGTKLTVL ?
A. 16
